Cited source for all entries: ChEMBL document CHEMBL1201862

System: Malme-3M
Assay Name: NCI tumour cell line growth inhibition, 48 h
The source made the active and inactive calls. No stated cut-off is given here; in the data, active = GI50 up to about 1.1 µM and inactive = higher.
Write down the outcome that applies. Available outcomes: TRUE for active, FALSE for inactive

Problem: Please indicate how the test categorized Oc1c(Br)cc(Br)cc1CN(Cc1cc(Br)cc(Br)c1O)C1CCCCC1 .
Solution: FALSE

Problem: And for Cc1ccc(C)c(N2C(=O)C(=O)C(c3nc4ccccc4s3)C(=O)C2=O)c1 ?
Solution: FALSE

---
Problem: Please indicate how the test categorized Oc1ccc(Cl)cc1/N=N\c1c(O)ccc2ccccc12 .
Solution: FALSE

Problem: And for NC(=S)NN=Cc1ccccc1OCc1cccc(COc2ccccc2C=NNC(N)=S)n1 ?
Solution: FALSE

Problem: And for [N-]=[N+]=Nc1c(Cl)c(=O)n(-c2ccccc2)c2ccccc12 ?
Solution: FALSE
